Values compiled from ChEMBL document CHEMBL4689842.

tested on: Fibroblast; assay: Multiplex assay against human fibroblast; type: toxicity, cell-based; conditions: 24 h, 1 µM, compound concentration 1 uM, replicate 1
measurement type: Population Fragmented Nuclei (%)
Provide only the numeric value, understood in %.

Worked cases, Population Fragmented Nuclei (%) given:
compound=NC(=O)Nc1cc(-c2cccc(F)c2)sc1C(=O)N[C@H]1CCCNC1 output_unit=% reported_value=25
compound=CC(C)(O)CNc1ncc(-c2ccnc(Nc3ccnc(Cl)c3)n2)c(CC2CC2)n1 output_unit=% reported_value=35
compound="CN1CCCC(n2nc(Cc3ccc(Cl)cc3)c3ccccc3c2=O)CC1.Cl (stereo not drawn) [AZELASTINE HYDROCHLORIDE]" output_unit=% reported_value=31

Need Population Fragmented Nuclei (%), item CN(C)CC#Cc1ccc(OCCCc2sc(N3CCc4cccc(C(=O)Nc5nc6ccccc6s5)c4C3)nc2C(=O)O)c(F)c1 30

Given the entry Cn1cc(-c2[nH]c3cc(NC(=O)[C@H](N)C4CCCCC4)cc4c3c2C=NNC4=O)cn1 , report its measured Population Fragmented Nuclei (%). 27
